system: HCT-15
Parameter: log10 GI50 (log10 of the value in µM)

{"columns": ["Molecule", "log10 GI50"],
 "data": [
  ["CC(=O)O[C@@]12CO[C@@H]1C[C@H](O)[C@@]1(C)C(=O)[C@H](O)C3=C(C)[C@@H](OC(=O)[C@H](O)[C@@H](NC(=O)OC(C)(C)C)c4ccccc4)C[C@@](O)([C@@H](OC(=O)c4ccccc4)[C@H]21)C3(C)C [DOCETAXEL]", -1.31],
  ["NCC1CCCCC1.O=C(O)NCC1CCCCC1", 1.38],
  ["Cc1ccc2nc(/C=N/c3ccc(Cl)cc3)cc(C)c2c1", -1.57],
  ["CC(=O)ON1C(=O)c2cccc3cccc(c23)C1=O", 1.26],
  ["O=C(Nc1cccc(O)c1)C(=O)C(C(=O)c1ccc(Cl)c(Cl)c1)C1OC(=O)c2ccccc21 (stereo not drawn)", 1.19],
  ["COc1ccc(C2Oc3ccc(Cl)cc3C=C2[N+](=O)[O-])cc1OC (stereo not drawn)", 0.17],
  ["Cc1ccc(NC(=O)/C(Cl)=C(/Cl)C(=O)O)cc1", 1.19],
  ["NNC(=O)C(=O)N/N=C1/CCCC1C(=O)CCC(=O)Nc1ccc(Cl)cc1 (stereo not drawn)", 1.09],
  ["Nc1ccccc1N/C(=C\\C(=O)C(Cl)(Cl)Cl)c1ccccc1", 1.40],
  ["COc1ccc(-c2cc(=O)c3c(O)cccc3o2)c(OC)c1OC", 1.00],
  ["CN1C/C(=C\\c2ccccc2[N+](=O)[O-])C(=O)/C(=C/c2ccccc2[N+](=O)[O-])C1", -0.60],
  ["CC1=C(C2=C(C)C(=O)C(=O)c3cc(C)ccc32)c2ccc(C)cc2C(=O)C1=O", -0.56],
  ["CCCCn1c2c(n(CCCC)c1=S)-c1c(n(CCCC)c(=S)n1CCCC)SSc1c(n(CCCC)c(=S)n1CCCC)-c1c(n(CCCC)c(=S)n1CCCC)SSc1c(n(CCCC)c(=S)n1CCCC)-c1c(n(CCCC)c(=S)n1CCCC)SS2", 0.88],
  ["OC(CCN1CCN(CCOC(c2ccc(F)cc2)c2ccc(F)cc2)CC1)c1ccccc1 (stereo not drawn)", 1.13],
  ["O=C(Nc1cccc(Cl)c1)c1cc2cc(/N=N/c3ccc(Br)cc3)ccc2oc1=O", 1.01],
  ["O=C(OCc1ccccc1CN1CCOCC1)c1cccc(Br)c1", 1.56],
  ["CCOC(=O)C1=C(C)NC2=C(C(=O)N(c3ccccc3)C2c2ccccc2)C1c1ccccc1 (stereo not drawn)", 1.20],
  ["Oc1cc(-c2cccc(Cl)c2)nc2cc3c(cc12)OCO3", -0.57],
  ["COc1cc(C#CC(=O)OC/C=C/c2ccc3c(c2)OCO3)cc(OC)c1OC", 1.40],
  ["Cc1ccc(S(=O)(=O)[C@@H](Cl)[C@H]2N=C(Cl)NN=C2c2ccccc2)cc1", 1.35],
  ["CC1=C(C)C(=O)C(C2=C(C3=CC(=O)C(C)=C(C)C3=O)C(=O)C(C)=C(C)C2=O)=CC1=O", -0.53],
  ["OCc1c2c(cc3c1CC1(C3)Cc3cc4c(c(CO)c3C1)CCC4)CCC2", 1.26]
]}

* * *

tested on: BT-549; assay: NCI tumour cell line growth inhibition, 48 h
Where a name gives a salt, the structure may show the parent alone. Activity calls are given as the source filed them. Cut-off read from the data, not from the text of the source: active = GI50 up to about 1.1 µM and inactive = higher.
Possible outcomes: active, inactive

{"columns": ["Compound", "Class Assignment"],
 "data": [
  ["COC(=O)c1c(O)ccc2c1c1c(n2Cc2ccc(OC)cc2)C(=O)c2ccccc2C1", "inactive"],
  ["CS(=O)(=O)C(C#N)c1nc2ccccc2nc1Cl (configuration not stated)", "inactive"],
  ["COc1ccc2c(c1)c1c(n2CCN(C)C)-c2cccc(OC)c2CC1", "inactive"],
  ["COC(=O)C1=C(C(=O)OC)N(c2ccc(OC)cc2[N+](=O)[O-])C(c2ccc(C)cc2)=CC1c1ccc(OC)cc1OC (configuration not stated)", "inactive"],
  ["COc1cc(OC)cc(C(=O)NC2=C(Cl)C(=O)c3ccccc3C2=O)c1", "inactive"],
  ["O=C(O)CN1C(=O)C(Cc2ccc(O)cc2)N=C(c2cccc(O)c2)c2ccccc21 (configuration not stated)", "inactive"],
  ["CC(=O)c1ccc(Nc2nc3ccccc3c3occc23)cc1", "inactive"],
  ["CN[C@@H]1[C@H](O)[C@H](NC)[C@H]2O[C@@]3(O)C(=O)C[C@@H](C)O[C@H]3O[C@@H]2[C@H]1O [SPECTINOMYCIN SULFATE]", "inactive"],
  ["Cc1ccc2c(c1)C(O)(c1ccccc1)CCS2 (configuration not stated)", "inactive"],
  ["N=c1oc2ccc3ccccc3c2cc1-c1nc(O)c2ccccc2n1", "inactive"],
  ["Cc1ccc(NC(=O)c2ccc(OP(=O)(O)Nc3ccc(C)cc3)cc2)cc1", "inactive"],
  ["C=C1C(=O)OC2C(C)C3C=CC(=O)[C@@]3(C)C(OC(=O)/C(C)=C/C)C1[C@@H]2OC(C)=O (some centres not stated)", "active"],
  ["NCC1CCCCC1.O=C(O)NCC1CCCCC1", "inactive"],
  ["OC1=C2c3ccccc3NC2Oc2cc(F)ccc21 (configuration not stated)", "inactive"],
  ["COc1cc2cc[n+](C)c(Cc3ccc(Oc4cc(Cc5c6cc(OC)c(OC)cc6cc[n+]5C)ccc4OC)cc3)c2cc1OC", "inactive"],
  ["Cn1c(=O)cc(NCCc2ccccc2)[nH]c1=O", "inactive"],
  ["O=C(NCC(O)COc1ccccc1)c1ccccc1O (configuration not stated)", "inactive"],
  ["N#Cc1cc(Sc2ccc(N)c(C#N)c2)ccc1N", "inactive"],
  ["Cc1ccc(S(=O)(=O)NC(=O)C2=C3SCCN3C(=O)N(S(=O)(=O)c3ccc(C)cc3)C2c2ccccc2)cc1 (configuration not stated)", "inactive"],
  ["c1ccc(CCN2CCOCC2)nc1", "inactive"],
  ["OCC1CCCC(n2cnc3c(S)ncnc32)O1 (configuration not stated)", "inactive"],
  ["COc1ccc2[nH]c(Cl)c(/C=C3/C(=O)N(c4ccccc4)c4ccccc43)c2c1", "inactive"]
]}

The origin of these recorded values is ChEMBL document CHEMBL1201862.
